Biological target: T1, PUF4 RNA-binding domain (Saccharomyces cerevisiae, UniProt P25339 537-888)
T1 sequence: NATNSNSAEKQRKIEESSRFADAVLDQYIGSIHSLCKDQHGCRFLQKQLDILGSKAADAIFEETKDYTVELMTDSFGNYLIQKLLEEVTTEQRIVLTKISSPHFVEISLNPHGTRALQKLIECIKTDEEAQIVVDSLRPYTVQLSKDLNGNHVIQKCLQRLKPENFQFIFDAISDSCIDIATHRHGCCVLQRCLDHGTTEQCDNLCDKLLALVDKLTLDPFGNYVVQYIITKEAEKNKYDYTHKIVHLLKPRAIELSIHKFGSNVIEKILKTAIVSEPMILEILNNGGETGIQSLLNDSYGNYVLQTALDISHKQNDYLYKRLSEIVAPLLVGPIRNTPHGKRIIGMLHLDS
Test: Mg; RNA-MaP; 20 mM Na-HEPES pH 7.4, 30 mM KOAc, 0.75 mM MgCl2, 0.1% Tween-20, 5% glycerol, 0.1 mg/mL BSA, 2 mM DTT; 25 C; 0.0125-409.6 nM protein
Settings: tags: N-His6-TEV cleaved; C-SNAP kept, Cy3B-labelled; label: tethered on chip by stalled RNA polymerase
For each entry below, report its pKd value.
Note: pKd values are expressed as the negative base-10 logarithm of concentration in M.

Briefly, pKd measured for Ib_S2_P5E.1_K5.1_C5.1_H5.1_[G2C]_[A4G]_A5.1_F5.1_T5.1 (ssRNA) RNA: UUUGAUUAAUAUGAUAUCGUUCUUUCUUCUGUUAUUAUUCUUUCUCGAUAUCAUAUUAAUCUUU : 6.28

Documented pKd of Ib_S4_P5E.1_K5.1_C5.1_H5.1_A5.1_[T5G]_F5.1_[A10G]_T5.1 (ssRNA) RNA: UUUGACAACUGAUCGUUCUUUCUUGUAGUAUUGUUCUUUCUCGAUCAGUUGUCUUU : 6.96

The binder listed as Ic_S2_P5E.1_K5.1_C5.1_H5.1_A5.1_[T5G]_[T6C]_F5.1_[T9C]_T5.1 (ssRNA) RNA: UUUGAUUAAUAUGAUAUCGUUCUUUCUUGUAGCAUCAUUCUUUCUCGAUAUCAUAUUAAUCUUU shows pKd equal to 7.06

The binder listed as Ic_S2_P5E.1_K5.1_C5.1_H5.1_A5.1_[T5A]_[A7C]_F5.1_[T9A]_T5.1 (ssRNA) RNA: UUUGAUUAAUAUGAUAUCGUUCUUUCUUGUAAUCUAAUUCUUUCUCGAUAUCAUAUUAAUCUUU shows pKd equal to 8.09

Note to self: pKd recorded for UCUCUUGCUGUAUAUUAUCUCUCUU (ssRNA) [Id_ii_S1_P4E.2_K4.1_C4.2_[C-2G]_[T-1C]_H4.1_A4.1_F4.1_T4.2_[G10T]_[T11C]] was 8.94

Data point: UCUCUUAGUAUAAUAUCUCUU (ssRNA) [Ib_S1_P4E.1_K4.1_C4.1_H4.1_[T1A]_A4.1_[T7A]_F4.1_T4.1] ; pKd = 6.90

Value of pKd reported for the binder Id_ii_S4_P4E.2_K4.1_C4.2_[C-2A]_[T-1G]_H4.1_A4.1_F4.1_T4.2_[G10A]_[T11A] (ssRNA) RNA: UUUGACAACUGAUCGUUCUUUCUAGUGUAUAUUAAAUUCUUUCUCGAUCAGUUGUCUUU is 8.79

Item: UCUCUUUGUAACUGGUCUCUU (ssRNA) [Ic_S1_P4E.1_K4.1_C4.1_H4.1_A4.1_[T5A]_[A6C]_F4.1_[T8G]_[A9G]_T4.1] | pKd: 6.03

UCUCUUGCACACUUAUUACAUCUCUU (ssRNA) [Id_ii_S1_P5E.4_K5.3_C5.2_[C-2G]_[T-1C]_H5.3_A5.1_F5.1_T5.2_[T11C]] has a reported pKd of 5.92

Query Id_ii_S2_P4E.2_K4.1_C4.2_[C-2A]_[T-1A]_H4.1_A4.1_F4.1_T4.2_[G10T]_[T11C] (ssRNA) RNA: UUUGAUUAAUAUGAUAUCGUUCUUUCUAAUGUAUAUUAUCUUCUUUCUCGAUAUCAUAUUAAUCUUU yields pKd of 8.96

Sample Id_ii_S2_P4E.4_K4.3_C4.2_[C-2G]_H4.3_A4.1_F4.1_T4.2_[G10A] (ssRNA) RNA: UUUGAUUAAUAUGAUAUCGUUCUUUCUGUACACUAUUAAUUUCUUUCUCGAUAUCAUAUUAAUCUUU ; pKd observed: 9.39
